# Test system: HUVECs
# MEASUREMENT PROTOCOL: High-content imaging cytotoxicity in HUVECs, 24 h
# Format: cell-based, human
# CONDITIONS: Homo sapiens, HUVEC, 24 h, HUVECs, 24 hr; top concentration 100.00 µM; read-out: huvec.cyto.24hr POD
Structures can show the parent of a compound that is named as a salt.
METRIC NAME: minimal effective concentration
Could you write the number and then its unit?

Problem: Value lookup for minimal effective concentration; key = Oc1cc(Cl)cc(-c2cccc(Cl)c2)c1 [5-OH PCB 11]
Result: 0.95 µM

Problem: Value lookup for minimal effective concentration; key = Oc1ccccc1-c1ccc(Cl)cc1 [2'-OH PCB3]
Result: 5.19 µM

Problem: Value lookup for minimal effective concentration; key = Oc1cc(Cl)c(-c2cc(Cl)ccc2Cl)cc1Cl [4-OH PCB52]
Result: 1 µM

Problem: Value lookup for minimal effective concentration; key = O=S(=O)(O)Oc1ccc(-c2cccc(Cl)c2)cc1Cl [4-yl PCB 11 sulfate]
Result: 48.8 µM

###

Give measured activity at 0.01 µM for each item. Keep answers brief.
# Tested on: iCell endothelial cells (human iPSC-derived ECs)
# MEASUREMENT PROTOCOL: Tube formation (tubulogenesis) assay in iCell endothelial cells, 18 h
# Assay type: cell-based
# CONDITIONS: Homo sapiens, Endothelial cell, iPSC-EC tube formation, 18 hr, 0.01 µM, 0.00 µM control = 100.00, read-out: endo.mtl.18hr
Where a name gives a salt, the structure may show the parent alone.
Give the quantity in %, number only.

Problem: Value lookup for activity at 0.01 µM; key = O=S(=O)(O)Oc1ccc(-c2ccc(Cl)cc2)cc1 [4'-yl PCB 3 sulfate]
Result: 99.2

Problem: Value lookup for activity at 0.01 µM; key = Clc1ccc(Cl)c(-c2cc(Cl)ccc2Cl)c1
Result: 109

Problem: Value lookup for activity at 0.01 µM; key = Clc1ccc(-c2ccccc2)cc1
Result: 114

Problem: Value lookup for activity at 0.01 µM; key = Oc1ccc(-c2cccc(Cl)c2)cc1Cl
Result: 108

Problem: Value lookup for activity at 0.01 µM; key = Oc1cc(Cl)cc(-c2cccc(Cl)c2)c1
Result: 117

Problem: Value lookup for activity at 0.01 µM; key = Oc1cc(Cl)c(-c2cc(Cl)ccc2Cl)cc1Cl
Result: 114

Problem: Value lookup for activity at 0.01 µM; key = Clc1cccc(-c2cccc(Cl)c2)c1
Result: 98.5

Problem: Value lookup for activity at 0.01 µM; key = O=S(=O)(O)Oc1cc(-c2ccccc2)ccc1Cl [3-yl PCB 3 sulfate]
Result: 102

###

# Tested on: iCell cardiomyocytes (human iPSC-derived cardiomyocytes)
# MEASUREMENT PROTOCOL: High-content imaging of cytotoxicity and mitochondrial integrity in iPSC-CMs
# Assay type: cell-based
# CONDITIONS: Homo sapiens, Cardiomyocyte, 24 h, 0.01 µM; 0.00 µM = 100.00; read-out: cm.tc.24hrs
Where a name gives a salt, the structure may show the parent alone.
METRIC NAME: viability at 0.01 µM
Could you write the number and then its unit?

Problem: Value lookup for viability at 0.01 µM; key = Clc1cccc(-c2cccc(Cl)c2)c1
Result: 102%

Problem: Value lookup for viability at 0.01 µM; key = COc1ccc(-c2ccc(Cl)cc2)cc1
Result: 105%

Problem: Value lookup for viability at 0.01 µM; key = Oc1ccc(-c2ccc(Cl)cc2)cc1
Result: 98.1%

Problem: Value lookup for viability at 0.01 µM; key = O=S(=O)(O)Oc1ccc(-c2ccc(Cl)cc2)cc1 [4'-yl PCB 3 sulfate]
Result: 97.4%

Problem: Value lookup for viability at 0.01 µM; key = O=S(=O)(O)Oc1ccc(-c2cccc(Cl)c2)cc1Cl [4-yl PCB 11 sulfate]
Result: 89.5%

Problem: Value lookup for viability at 0.01 µM; key = Oc1cccc(-c2ccc(Cl)cc2)c1
Result: 91.6%

Problem: Value lookup for viability at 0.01 µM; key = Clc1ccc(-c2ccccc2)cc1
Result: 87.2%

Problem: Value lookup for viability at 0.01 µM; key = O=S(=O)(O)Oc1cc(-c2ccccc2)ccc1Cl [3-yl PCB 3 sulfate]
Result: 88.2%

###

Give measured activity at 1 µM for each item. Keep answers brief.
# Tested on: HUVECs
# MEASUREMENT PROTOCOL: Tube formation (tubulogenesis) assay in HUVECs, 18 h
# Type: cell-based, human
# CONDITIONS: Homo sapiens, HUVEC, 18 h, HUVECs, 1.00 µM, 0.00 µM = 100.00, read-out: huvec.mtl.18hr
Counter-ions that a name gives are not always drawn.
Give the quantity in %, number only.

Problem: Value lookup for activity at 1 µM; key = O=S(=O)(O)Oc1cc(Cl)c(-c2cc(Cl)ccc2Cl)cc1Cl [4-yl PCB 52 sulfate]
Result: 99

Problem: Value lookup for activity at 1 µM; key = Clc1ccc(Cl)c(-c2cc(Cl)ccc2Cl)c1 [PCB52]
Result: 108

Problem: Value lookup for activity at 1 µM; key = Oc1ccc(-c2cccc(Cl)c2)cc1Cl [4-OH PCB11]
Result: 112

Problem: Value lookup for activity at 1 µM; key = Oc1ccc(O)c(-c2ccc(Cl)cc2)c1 [2',5'-DiOH PCB3]
Result: 91.9

Problem: Value lookup for activity at 1 µM; key = O=S(=O)(O)Oc1cc(Cl)ccc1-c1ccccc1 [2-yl PCB 3 sulfate]
Result: 97.8

Problem: Value lookup for activity at 1 µM; key = Clc1ccc(-c2ccccc2)cc1 [PCB3]
Result: 87

Problem: Value lookup for activity at 1 µM; key = Clc1cccc(-c2cccc(Cl)c2)c1 [PCB11]
Result: 109

Problem: Value lookup for activity at 1 µM; key = Oc1ccc(-c2ccc(Cl)cc2)cc1 [4'-OH PCB3]
Result: 93.7

###

# Tested on: iCell endothelial cells (human iPSC-derived ECs)
# MEASUREMENT PROTOCOL: Tube formation (tubulogenesis) assay in iCell endothelial cells, 18 h
# Format: cell-based
# CONDITIONS: Homo sapiens, Endothelial cell, iPSC-EC tube formation, 18 hr, top concentration 100.00 µM, read-out: endo.ttl.18hr POD
METRIC NAME: minimal effective concentration
Could you write the number and then its unit?

Problem: Value lookup for minimal effective concentration; key = Oc1ccccc1-c1ccc(Cl)cc1 [2'-OH PCB3]
Result: 23.1 µM

Problem: Value lookup for minimal effective concentration; key = Oc1ccc(O)c(-c2ccc(Cl)cc2)c1 [2',5'-DiOH PCB3]
Result: 1.51 µM

Problem: Value lookup for minimal effective concentration; key = Clc1cccc(-c2cccc(Cl)c2)c1 [PCB11]
Result: 100 µM

###

# Test system: iPSC-CMs, iPSC-ECs and HUVECs phenotypes
# MEASUREMENT PROTOCOL: ToxPi 2.0 integration of POD values and physicochemical descriptors
# Set-up: species or system human
# CONDITIONS: ToxPi-scaled (0-1) score; iPSC endothelial cells, tube formation, 18 h
Structures can show the parent of a compound that is named as a salt.
Response field label: string, one of t (endo.ttl.18hr strictly below 0.4) or f.

Problem: In the record for Oc1ccc(O)c(-c2ccc(Cl)cc2)c1 [2',5'-diOH-PCB 3, 4-Chloro-2′,5′-dihydroxybiphenyl] , is endo.ttl.18hr less than 0.4?
Result: t

Problem: In the record for O=S(=O)(O)Oc1cc(Cl)c(-c2cc(Cl)ccc2Cl)cc1Cl [4-PCB 52 sulfate] , is endo.ttl.18hr less than 0.4?
Result: t

Problem: In the record for Clc1ccc(Cl)c(-c2c(Cl)ccc(Cl)c2Cl)c1Cl [(+)-PCB 136, 2,2′,3,3′,6,6′-hexachlorobiphenyl] , is endo.ttl.18hr less than 0.4?
Result: f

Problem: In the record for Clc1ccc(-c2cc(Cl)c(Cl)c(Cl)c2)cc1Cl , is endo.ttl.18hr less than 0.4?
Result: t

Problem: In the record for Clc1cccc(-c2cccc(Cl)c2)c1 , is endo.ttl.18hr less than 0.4?
Result: t

Problem: In the record for Clc1ccc(Cl)c(-c2cc(Cl)ccc2Cl)c1 , is endo.ttl.18hr less than 0.4?
Result: t

Problem: In the record for Clc1cc(Cl)c(-c2cc(Cl)c(Cl)cc2Cl)cc1Cl , is endo.ttl.18hr less than 0.4?
Result: f

Problem: In the record for COc1ccc(-c2ccc(Cl)cc2)cc1 , is endo.ttl.18hr less than 0.4?
Result: t

###

# System: iCell endothelial cells (human iPSC-derived ECs)
# MEASUREMENT PROTOCOL: High-content imaging cytotoxicity in iCell endothelial cells, 24 h
# Type: cell-based
# CONDITIONS: Homo sapiens, Endothelial cell, iPSC-EC, 24 hr, 0.10 µM, 0.00 µM control = 100.00, read-out: endo.cyto.24hr
Where a name gives a salt, the structure may show the parent alone.
Give measured viability at 0.1 µM for each item. Keep answers brief.
Give the quantity in %, number only.

Problem: Value lookup for viability at 0.1 µM; key = O=S(=O)(O)Oc1cc(-c2ccccc2)ccc1Cl [3-yl PCB 3 sulfate]
Result: 93

Problem: Value lookup for viability at 0.1 µM; key = O=S(=O)(O)Oc1ccc(-c2cccc(Cl)c2)cc1Cl [4-yl PCB 11 sulfate]
Result: 102

Problem: Value lookup for viability at 0.1 µM; key = O=S(=O)(O)Oc1cc(Cl)c(-c2cc(Cl)ccc2Cl)cc1Cl [4-yl PCB 52 sulfate]
Result: 92.5

Problem: Value lookup for viability at 0.1 µM; key = COc1ccc(-c2ccc(Cl)cc2)cc1 [4'-OMe PCB3]
Result: 103

Problem: Value lookup for viability at 0.1 µM; key = COc1ccc(-c2cccc(Cl)c2)cc1Cl [4-OMe PCB11]
Result: 101

Problem: Value lookup for viability at 0.1 µM; key = Clc1cccc(-c2cccc(Cl)c2)c1 [PCB11]
Result: 95.3
